# METHOD: qHTS assay to identify small molecule antagonists of the sonic hedgehog signaling (Shh) pathway - cell viability counter screen (AID 1259367); also: % is scaled to controls: 0 for no effect and ±100 for the full control effect; nearly all actives have a fitted effect of over 55% in size
# COND: NIH/3T3 Gli1-Luc viability, CellTiter-Fluor, 24 h; series mostly up to 92.4 µM
Inconclusive results are not listed. The source made the active and inactive calls. Calls follow the shape of the dose curve; as a rule, active = well fitted cell-killing curve with a large enough effect in the repeat runs; inconclusive = weak or mixed curves, or effect the other way; inactive = no such curve, though single readings can be large or run the other way.
Form entry, call: pick from active, inactive

Worked set:
Just curious, what result did CCOc1ccc([N+](=O)[O-])cc1 get here?
inactive

Name the outcome recorded for CCOC(=O)[C@H](C)O in the assay.
inactive

I'd appreciate the recorded outcome for CN1CCN(C)CC1 from this test.
inactive

For CC(=O)CC(N)=O , what call appears in the results of this test?
inactive

I would be grateful if you could indicate the recorded call for O=c1[nH]cccc1O .
inactive

***
Given C1=CCCC1 , state the outcome it received in this test.
inactive

Fill in: this test's call for C1CCSC1 is ___
inactive

Please state the recorded outcome for this molecule: CC(c1cc(C(C)(C)C)cc(C(C)(C)C)c1O)c1cc(C(C)(C)C)cc(C(C)(C)C)c1O
inactive

Which outcome was assigned to CCCCCCCCc1ccc(Nc2ccc(CCCCCCCC)cc2)cc1 in this test?
inactive

###

# STUDY SYSTEM: Estrogen receptor (Homo sapiens)
# METHOD: qHTS assay to identify small molecule agonists of the estrogen receptor alpha (ER-alpha) signaling pathway using the BG1 cell line (AID 743079); also: nearly all actives have a fitted effect of over 20% in size; as to activation: % is scaled to controls: 0 for no effect and ±100 for the full control effect
# COND: BG1Luc4E2 cells, ERE-luciferase agonist, 22 h; series mostly up to 70.3 µM
Records with an inconclusive call do not appear. Calls of active or inactive are those of the source. Calls follow the shape of the dose curve; as a rule, active = well fitted activation curve with a large enough effect in the repeat runs; inconclusive = weak or mixed curves, or effect the other way; inactive = no such curve, though single readings can be large or run the other way.
The reply should name one outcome from true (1) (active), false (0) (inactive)

Recorded results for 5 compounds are shown here.
I'd appreciate the recorded outcome for CC(C)=CCC/C(C)=C/CC/C(C)=C/CC/C(C)=C/CC1=C(C)C(=O)c2ccccc2C1=O from this test.
false (0)

Which outcome did this test record for the compound CCCCCCOC(=O)c1cccnc1 ?
false (0)

For this compound, state the assay outcome: O=C(O)/C=C/C(=O)Nc1ccc(S(=O)(=O)Nc2nccs2)cc1
false (0)

Any idea what this test logged for CN1[C@@H](CC(=O)c2ccccc2)CCC[C@H]1C[C@H](O)c1ccccc1 ?
false (0)

# fetch the recorded call for NCC(O)CC(=O)O (stereo unspecified) here
true (1)

Others:
Identify the outcome logged in this assay for the compound shown: CC(C)(COP(=O)(O)OP(=O)(O)OC[C@H]1O[C@@H](n2cnc3c(N)ncnc32)[C@H](O)[C@@H]1OP(=O)(O)O)C(O)C(=O)NCCC(=O)NCCS (stereo partly specified)
true (1)

Answer briefly: the call reported for Nc1cc(Cl)c(NC2=NCCN2)c(Cl)c1 in this assay.
false (0)

Name the outcome recorded for CC(C)CCC[C@@H](C)[C@H]1CC[C@H]2[C@@H]3CC[C@@H]4C[C@H](O)CC[C@]4(C)[C@H]3CC[C@]12C in the assay.
false (0)

###

# STUDY SYSTEM: Progesterone receptor (Homo sapiens)
# METHOD: qHTS assay to identify small molecule antagonists of the progesterone receptor (PR) signaling pathway (AID 1346795)
# COND: PR-UAS-bla HEK293T, beta-lactamase FRET ratio, 16 h; series mostly up to 92.4 µM
Inconclusive results are not listed. Calls of active or inactive are those of the source. The call rests on the fitted dose curve; in most records, active means well fitted inhibition curve with a large enough effect in the signal ratio in the repeat runs (not every such curve was filed as active); inconclusive means weak or mixed curves; inactive means flat fitted curve, though single readings scatter; the % refers to the signal ratio.
Your reply should match one of these outcome classes. active, inactive

Examples with answers:
State the result this test recorded for Brc1cc(Br)cc(Br)c1 .
inactive

Status in this test for CN1CCN(C)CC1 ?
inactive

Tell me the recorded outcome of this test for Nc1ccc(Oc2cccc(Oc3ccc(N)cc3)c2)cc1 .
active

Continuing:
Query: recorded result category for Oc1cccc2c(O)cccc12 in this test
active

Each compound tested received a call. Report the one for CC(C=O)c1ccccc1 (stereo not drawn) .
inactive

Each compound tested received a call. Report the one for CCc1cccc(CC)c1 .
inactive

Can you look up the reported call for N#Cc1ccc(C/C(=N/NC(=O)Nc2ccc(OC(F)(F)F)cc2)c2cccc(C(F)(F)F)c2)cc1 for me?
active

# fetch the recorded call for COc1c(Br)cc(Br)c(C)c1Br here
inactive

Check the results log: what was the call for CCc1cccc(C)c1N(C(=O)C(=O)O)C(C)COC (stereo not drawn) ?
inactive

Which outcome did this test record for the compound CC(C)(C)c1cc(CCC(=O)OCCSCCOC(=O)CCc2cc(C(C)(C)C)c(O)c(C(C)(C)C)c2)cc(C(C)(C)C)c1O ?
inactive

Answer briefly: the call reported for CC1=C(/C=C/C(C)=C/C=C/C(C)=C\C(=O)O)C(C)(C)CCC1 in this assay.
inactive

Tell me the recorded outcome of this test for Nc1cc([N+](=O)[O-])cc(Cl)c1O .
inactive

For NC(=O)c1ccccc1Cl , what call appears in the results of this test?
inactive

###

# STUDY SYSTEM: Androgen receptor (Homo sapiens) (UniProt P10275)
# Sequence (P10275 whole entry, looked up): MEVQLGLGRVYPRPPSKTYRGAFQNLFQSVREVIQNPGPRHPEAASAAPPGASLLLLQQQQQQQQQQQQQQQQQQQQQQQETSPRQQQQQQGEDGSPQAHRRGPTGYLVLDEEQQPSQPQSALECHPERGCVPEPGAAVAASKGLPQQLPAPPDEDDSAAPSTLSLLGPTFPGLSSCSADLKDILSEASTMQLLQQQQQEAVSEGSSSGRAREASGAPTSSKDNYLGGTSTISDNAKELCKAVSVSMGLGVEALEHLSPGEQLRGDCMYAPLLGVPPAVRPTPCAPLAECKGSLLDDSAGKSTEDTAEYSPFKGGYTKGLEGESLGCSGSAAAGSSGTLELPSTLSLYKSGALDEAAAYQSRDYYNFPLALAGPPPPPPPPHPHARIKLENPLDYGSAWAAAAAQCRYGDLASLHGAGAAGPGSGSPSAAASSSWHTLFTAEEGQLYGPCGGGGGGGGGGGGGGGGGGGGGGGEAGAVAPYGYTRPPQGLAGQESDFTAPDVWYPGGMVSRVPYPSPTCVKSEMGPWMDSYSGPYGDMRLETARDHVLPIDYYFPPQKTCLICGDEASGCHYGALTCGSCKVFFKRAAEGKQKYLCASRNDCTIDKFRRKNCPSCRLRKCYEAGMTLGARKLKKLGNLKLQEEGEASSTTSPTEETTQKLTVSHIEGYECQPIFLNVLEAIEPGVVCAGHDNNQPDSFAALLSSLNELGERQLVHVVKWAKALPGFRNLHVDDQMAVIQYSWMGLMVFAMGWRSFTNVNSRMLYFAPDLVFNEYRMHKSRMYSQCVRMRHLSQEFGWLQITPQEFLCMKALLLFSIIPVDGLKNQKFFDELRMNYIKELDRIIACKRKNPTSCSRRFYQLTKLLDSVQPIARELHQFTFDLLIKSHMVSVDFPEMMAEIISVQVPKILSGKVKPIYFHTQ
# METHOD: qHTS assay to identify small molecule antagonists of the androgen receptor (AR) signaling pathway using the MDA cell line (AID 743042; also: nearly all actives have a fitted effect of over 55% in size)
# COND: MDA-kb2 AR-luc, MMTV luciferase, R1881 antagonist, 16 h; series mostly up to 70.3 µM
Inconclusive results are not listed. Calls of active or inactive are those of the source. Calls follow the shape of the dose curve; as a rule, active = well fitted inhibition curve with a large enough effect in the repeat runs; inconclusive = weak or mixed curves, or effect the other way; inactive = no such curve, though single readings can be large or run the other way.
Could you please pick one outcome from this set? active, inactive

Sample answers from the record:
Called result for NC(N)=NCC1COC2(CCCCC2)O1 (stereo not drawn)
inactive

Recorded test call requested for Cc1cc(F)ccc1-c1cc(N2CC[C@@H](O)[C@H]2CO)ncc1N(C)C(=O)C(C)(C)c1cc(C(F)(F)F)cc(C(F)(F)F)c1
active

Given CN(C[C@@H](CC[N+]12CCC(C3CCCCC3)(CC1)CC2)c1ccc(Cl)c(Cl)c1)C(=O)c1cc(C(F)(F)F)cc(C(F)(F)F)c1 , state the outcome it received in this test.
active

How did this test come out for O=C1c2ccccc2C(=O)C1c1ccc(F)cc1 ?
inactive

# fetch the recorded call for NC(=O)c1cc[n+](CC2=C(C(=O)O)N3C(=O)[C@@H](NC(=O)C(c4ccccc4)S(=O)(=O)[O-])[C@H]3SC2)cc1 (stereo partly drawn) here
inactive

Hi, sorry to bother you, what did the test record for NC[C@@H]1CC[C@@H](N)[C@@H](O[C@H]2[C@H](O)[C@@H](O[C@H]3O[C@H](CO)[C@@H](O)[C@H](N)[C@H]3O)[C@H](N)C[C@@H]2N)O1 ?
inactive

Hi team, can someone confirm the assay call for CC1(C)C[C@@H]1C(=O)N/C(=C\CCCCSC[C@H](N)C(=O)O)C(=O)O ?
inactive

Could you now consider this next compound?
# outcome recorded in this test, key = O=C1C2CC3CC1CC(O)(C3)C2
inactive

###

# METHOD: qHTS assay to identify small molecule agonists of the sonic hedgehog signaling (Shh) pathway - cell viability counter screen (AID 1259366); also: % is scaled to controls: 0 for no effect and ±100 for the full control effect; nearly all actives have a fitted effect of over 50% in size
# COND: NIH/3T3 Gli1-Luc viability, CellTiter-Fluor, 24 h; series mostly up to 92.4 µM
Results filed as inconclusive are left out. Calls of active or inactive are those of the source. The call rests on the fitted dose curve; in most records, active means well fitted cell-killing curve with a large enough effect in the repeat runs; inconclusive means weak or mixed curves, or effect the other way; inactive means flat fitted curve, though single readings scatter.
Consider the following compounds and their measured viability change, negative = cytotoxic readings.

As a guide, the following entries are already answered.
Measured viability change, negative = cytotoxic of O=C(O)C[C@H](O)C[C@H](O)/C=C/c1c(C2CC2)nc2ccccc2c1-c1ccc(F)cc1 : -7.99% [at 19 µM] (inactive)

Short answer for C=C[Si](C)(C)Cl : viability change, negative = cytotoxic was 9.73% [at 8.39 µM] (inactive)

The recorded viability change, negative = cytotoxic for O=C(O)CN(CCCN(CC(=O)O)CC(=O)O)CC(=O)O is -10.7% [at 19 µM] (inactive)

Per the record, CCCCNc1ccc(NCCCC)c2c1C(=O)c1ccccc1C2=O has viability change, negative = cytotoxic of -17.5% [at 19 µM] (inactive)

// field: viability change, negative = cytotoxic; key: COc1cc(C(C)C)ccc1C ; value = 0.547% [at 19 µM] (inactive)

Attention now shifts to the item below.
Lab note: measured viability change, negative = cytotoxic of CCCCCCCCCCCCS(=O)(=O)Cl was -2.48% [at 19 µM] (inactive)

###

# METHOD: qHTS assay for small molecules that induce genotoxicity in human embryonic kidney cells expressing luciferase-tagged ATAD5 - cell viability (AID 651634); also: nearly all actives have a fitted effect of over 25% in size
# COND: HEK293T ATAD5-luc cells viability, CellTiter-Fluor, 15.5 h; series mostly up to 83.3 µM
Records with an inconclusive call do not appear. Active and inactive are the calls of the source. The call rests on the fitted dose curve.
Please state which outcome applies, choosing from Y = active, N = inactive

Solved cases (3 shown):
// return assay outcome for COc1ccc(/C=C/C(=O)O)cc1
N

Kindly provide the recorded test outcome for the following compound: C[N+]1(CCCCC[N+]2(C)CCCC2)CCCC1
N

Please state the recorded outcome for this compound: C[S+](CC[C@H](N)C(=O)O)C[C@H]1O[C@@H](n2cnc3c(N)ncnc32)[C@H](O)[C@@H]1O (stereo not given in full)
N

***
Which outcome was entered for the compound NC(N)=NCc1cccc(I)c1 in this test?
N

# outcome recorded in this test, key = CCCCCCCCCC[N+](C)(CCCCCCCCCC)CCC[Si](OC)(OC)OC
Y

Please share the test call associated with CCC(NC(C)C)C(O)c1ccc(O)c(O)c1 (stereo not given) .
N

Cited source for all entries: PubChem BioAssay (Tox21)
